System: 377384-186-R-J1-PDC complex spheroid viability
test description: Anticancer human tumor 377384-186-R-J1-PDC patient-derived pancreatic carcinoma cell line growth inhibition [RAS]
condition summary: compound 0.003 µM; stronger effect = lower value
metric: viability, T/C

Field: example entries. Status: answers known.
compound	metric	observed
CCn1c(-c2cccnc2C(C)OC)c2c3cc(ccc31)N1CCOC(CC(NC(=O)C(C(C)C)N(C)C(=O)C3(F)CCN(C(=O)C#CC(C)(C)N(C)C)CC3)C(=O)N3CCCC(N3)C(=O)OCC(C)(C)C2)C1 (centres undefined)	viability, T/C	109% [middle of 8 runs]
CC1(C)CCC(Nc2ncc(C(F)(F)F)c(-c3c[nH]c4c(P(C)(C)=O)c(C#N)ccc34)n2)CN1 (centres undefined)	viability, T/C	59.5% [middle of 4 runs]
CCn1c(-c2cc(N3CCN(C)CC3)cnc2C(C)OC)c2c3cc(ccc31)-c1csc(n1)CC(NC(=O)C1CC1C)C(=O)N1CCCC(N1)C(=O)OCC(C)(C)C2 (centres undefined)	viability, T/C	21.4% [middle of 8 runs]

Attention now turns to another entry.
Record CCc1c2c(nc3ccc(O)cc13)-c1cc3c(c(=O)n1C2)COC(=O)[C@]3(O)CC . Reported viability, T/C: 35% [middle of 4 runs]

----------
System: 377384-186-R-J1-PDC complex spheroid viability
test description: Anticancer human tumor 377384-186-R-J1-PDC cell line growth inhibition [RAS];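 further: spheroids exposed to compounds for seven days before readout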
condition summary: second compound 0.316 µM; first compound 0.3 µM; stronger effect = lower value
metric: viability, T/C (%)
Return type: number; implicit unit %.

Consider the worked cases shown below.
compound	viability, T/C, %
CC1(C)CCC(Nc2ncc(C(F)(F)F)c(-c3c[nH]c4c(P(C)(C)=O)c(C#N)ccc34)n2)CN1 (centres undefined) + C#Cc1c(F)ccc2cc(O)cc(-c3ncc4c(N5CC6CCC(C5)N6)nc(OCC56CCCN5CC(F)C6)nc4c3F)c12	2.89
CCc1c2c(nc3ccc(O)cc13)-c1cc3c(c(=O)n1C2)COC(=O)[C@]3(O)CC + C=CC(=O)N1CCN(c2nc(OCC3CCCN3C)nc3c(F)c(-c4nc(N)cc(C)c4C(F)(F)F)c(Cl)cc23)C(C)C1	1
CCc1c2c(nc3ccc(O)cc13)-c1cc3c(c(=O)n1C2)COC(=O)[C@]3(O)CC + C#Cc1c(F)ccc2cc(O)cc(-c3ncc4c(N5CC6CCC(C5)N6)nc(OCC56CCCN5CC(F)C6)nc4c3F)c12	1.36

Then this compound:
Entry CC1(C)CCC(Nc2ncc(C(F)(F)F)c(-c3c[nH]c4c(P(C)(C)=O)c(C#N)ccc34)n2)CN1 (centres undefined) + C=CC(=O)N1CCN(c2nc(OCC3CCCN3C)nc3c(F)c(-c4nc(N)cc(C)c4C(F)(F)F)c(Cl)cc23)C(C)C1 , viability, T/C reported as 13.2

----------
Test system: 377384-186-R-J1-PDC complex spheroid viability
test description: Anticancer human tumor 377384-186-R-J1-PDC cell line growth inhibition [RAS]; active = viability on the fitted dose curve at most 10% of control; inactive = the rest;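 further: spheroids exposed to compounds for seven days before readout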
condition summary: second compound 0.003 µM; first compound 3.16 µM
Output constraint: value belongs to active, inactive

molecule	group
CC(Nc1ccc2c(c1)OCCn1cc(N3C(=O)OCC3C(F)F)nc1-2)C(N)=O (configuration not stated) + CCn1c(-c2cccnc2C(C)OC)c2c3cc(ccc31)N1CCOC(CC(NC(=O)C(C(C)C)N(C)C(=O)C3(F)CCN(C(=O)C#CC(C)(C)N(C)C)CC3)C(=O)N3CCCC(N3)C(=O)OCC(C)(C)C2)C1	inactive

Now, please, on to the next molecule.
Please indicate how the test categorized CCC(CC)c1cc(NC2CCC(N)C2)n2nccc2n1 (configuration not stated) + CCn1c(-c2cccnc2C(C)OC)c2c3cc(ccc31)N1CCOC(CC(NC(=O)C(C(C)C)N(C)C(=O)C3(F)CCN(C(=O)C#CC(C)(C)N(C)C)CC3)C(=O)N3CCCC(N3)C(=O)OCC(C)(C)C2)C1 .
active

----------
System: 377384-186-R-J1-PDC complex spheroid viability
test description: Anticancer human tumor 377384-186-R-J1-PDC cell line growth inhibition [RAS]; active = viability on the fitted dose curve at most 10% of control; inactive = the rest;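 further: spheroids exposed to compounds for seven days before readout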
condition summary: second compound 1 µM; first compound 0.01 µM
Choose the fitting class; nothing outside Y = active, N = inactive is accepted.

Worked examples follow.
molecule	assay target	group
Nc1ccn(C2OC(CO)C(O)C2(F)F)c(=O)n1 (stereo unspecified) + C#Cc1c(F)ccc2cc(O)cc(-c3ncc4c(N5CC6CCC(C5)N6)nc(OCC56CCCN5CC(F)C6)nc4c3F)c12	377384-186-R-J1-PDC complex spheroid viability	Y
Nc1ccn(C2OC(CO)C(O)C2(F)F)c(=O)n1 (stereo unspecified) + C=CC(=O)N1CCN(c2nc(OCC3CCCN3C)nc3c(F)c(-c4nc(N)cc(C)c4C(F)(F)F)c(Cl)cc23)C(C)C1	377384-186-R-J1-PDC complex spheroid viability	N
CC(C)n1nc(-c2ccc3oc(N)nc3c2)c2c(N)ncnc21 + C=CC(=O)N1CCN(c2nc(OCC3CCCN3C)nc3c(F)c(-c4nc(N)cc(C)c4C(F)(F)F)c(Cl)cc23)C(C)C1	377384-186-R-J1-PDC complex spheroid viability	N
CCN1CCN(Cc2ccc(Nc3ncc(F)c(-c4cc(F)c5nc(C)n(C(C)C)c5c4)n3)nc2)CC1 + C#Cc1c(F)ccc2cc(O)cc(-c3ncc4c(N5CC6CCC(C5)N6)nc(OCC56CCCN5CC(F)C6)nc4c3F)c12	377384-186-R-J1-PDC complex spheroid viability	Y
C=CC(=O)Nc1cc(Nc2nccc(-c3cn(C)c4ccccc34)n2)c(OC)cc1N(C)CCN(C)C + C#Cc1c(F)ccc2cc(O)cc(-c3ncc4c(N5CC6CCC(C5)N6)nc(OCC56CCCN5CC(F)C6)nc4c3F)c12	377384-186-R-J1-PDC complex spheroid viability	Y

Please examine the following record next.
Tell me the recorded outcome of this test for CCN1CCN(Cc2ccc(Nc3ncc(F)c(-c4cc(F)c5nc(C)n(C(C)C)c5c4)n3)nc2)CC1 + C=CC(=O)N1CCN(c2nc(OCC3CCCN3C)nc3c(F)c(-c4nc(N)cc(C)c4C(F)(F)F)c(Cl)cc23)C(C)C1 .
N

----------
Tested on: 377384-186-R-J1-PDC complex spheroid viability
test description: Anticancer human tumor 377384-186-R-J1-PDC cell line growth inhibition [RAS];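 further: spheroids exposed to compounds for seven days before readout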
condition summary: second compound 0.1 µM; first compound 1 µM; stronger effect = lower value
metric: viability, T/C (%)
Quick reminder: number only, in %, skip the unit.

Known viability, T/C results, listed for orientation:
molecule	viability, T/C [%]
CC(=O)OC12COC1CC(O)C1(C)C(=O)C(O)C3=C(C)C(OC(=O)C(O)C(NC(=O)OC(C)(C)C)c4ccccc4)CC(O)(C(OC(=O)c4ccccc4)C21)C3(C)C (centres undefined) + C=CC(=O)N1CCN(c2nc(OCC3CCCN3C)nc3c(F)c(-c4nc(N)cc(C)c4C(F)(F)F)c(Cl)cc23)C(C)C1	12.9
O=C(c1ccc(F)c(F)c1Nc1ccc(I)cc1F)N1CC(O)([C@@H]2CCCCN2)C1 + C#Cc1c(F)ccc2cc(O)cc(-c3ncc4c(N5CC6CCC(C5)N6)nc(OCC56CCCN5CC(F)C6)nc4c3F)c12	0.35
CC(=O)OC12COC1CC(O)C1(C)C(=O)C(O)C3=C(C)C(OC(=O)C(O)C(NC(=O)OC(C)(C)C)c4ccccc4)CC(O)(C(OC(=O)c4ccccc4)C21)C3(C)C (centres undefined) + C#Cc1c(F)ccc2cc(O)cc(-c3ncc4c(N5CC6CCC(C5)N6)nc(OCC56CCCN5CC(F)C6)nc4c3F)c12	1.89

Moving on to another molecule below.
What the record says about Cc1nc(N2CCC3(CC2)COC(C)C3N)c(CO)nc1Sc1ccnc(N)c1Cl (centres undefined) + C=CC(=O)N1CCN(c2nc(OCC3CCCN3C)nc3c(F)c(-c4nc(N)cc(C)c4C(F)(F)F)c(Cl)cc23)C(C)C1 : viability, T/C is 76

----------
Tested on: 377384-186-R-J1-PDC complex spheroid viability
test description: Anticancer human tumor 377384-186-R-J1-PDC cell line growth inhibition [RAS]; active = viability on the fitted dose curve at most 10% of control; inactive = the rest;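 further: spheroids exposed to compounds for seven days before readout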
condition summary: second compound 0.1 µM; first compound 10 µM
Source text: RAS pathway inhibitors in Combinations in Complex Spheroids A high-throughput screen of multi-cell type tumor spheroids was designed to identify active combinations of RAS pathway inhibitors and targeted small molecules. Complex spheroids include a stromal component modeled by human endothelial cells (HUVEC) and fibroblasts modeled by human mesenchymal stem cells (MSCs). […] Compounds. […] If the clinical Cmax for an agent had not been determined, the highest concentration tested was 10 microM. […]
Answer with one of the outcomes given here: Yes (active), No (inactive)

compound	group
CCC(CC)c1cc(NC2CCC(N)C2)n2nccc2n1 (stereo not drawn) + C=CC(=O)N1CCN(c2nc(OCC3CCCN3C)nc3c(F)c(-c4nc(N)cc(C)c4C(F)(F)F)c(Cl)cc23)C(C)C1	Yes
CC(=O)OC12COC1CC(O)C1(C)C(=O)C(O)C3=C(C)C(OC(=O)C(O)C(NC(=O)OC(C)(C)C)c4ccccc4)CC(O)(C(OC(=O)c4ccccc4)C21)C3(C)C (stereo not drawn) + C#Cc1c(F)ccc2cc(O)cc(-c3ncc4c(N5CC6CCC(C5)N6)nc(OCC56CCCN5CC(F)C6)nc4c3F)c12	Yes
CC1(O)CCCC1n1c(=O)c(C(F)F)cc2cnc(NC3CCN(S(C)(=O)=O)CC3)nc21 (stereo not drawn) + C#Cc1c(F)ccc2cc(O)cc(-c3ncc4c(N5CC6CCC(C5)N6)nc(OCC56CCCN5CC(F)C6)nc4c3F)c12	Yes
C[C@@H](NC(=O)c1ncnc(N)c1Cl)c1ncc(C(=O)Nc2cc(C(F)(F)F)c(Cl)cn2)s1 + C#Cc1c(F)ccc2cc(O)cc(-c3ncc4c(N5CC6CCC(C5)N6)nc(OCC56CCCN5CC(F)C6)nc4c3F)c12	No

Record request — test call for Cc1nc(N2CCC3(CC2)COC(C)C3N)c(CO)nc1Sc1ccnc(N)c1Cl (stereo not drawn) + C=CC(=O)N1CCN(c2nc(OCC3CCCN3C)nc3c(F)c(-c4nc(N)cc(C)c4C(F)(F)F)c(Cl)cc23)C(C)C1
No

# outcome recorded in this test, key = CC(C)NCC(C(=O)N1CCN(c2ncnc3c2C(C)CC3O)CC1)c1ccc(Cl)cc1 (stereo not drawn) + C=CC(=O)N1CCN(c2nc(OCC3CCCN3C)nc3c(F)c(-c4nc(N)cc(C)c4C(F)(F)F)c(Cl)cc23)C(C)C1
No

Write down the call the test reported for this compound. Item: CCC(CC)c1cc(NC2CCC(N)C2)n2nccc2n1 (stereo not drawn) + C#Cc1c(F)ccc2cc(O)cc(-c3ncc4c(N5CC6CCC(C5)N6)nc(OCC56CCCN5CC(F)C6)nc4c3F)c12
Yes

How did this test come out for CC(Nc1ccc2c(c1)OCCn1cc(N3C(=O)OCC3C(F)F)nc1-2)C(N)=O (stereo not drawn) + C=CC(=O)N1CCN(c2nc(OCC3CCCN3C)nc3c(F)c(-c4nc(N)cc(C)c4C(F)(F)F)c(Cl)cc23)C(C)C1 ?
No

Ref: PubChem BioAssay AID2060903
